// data source = patent US20120251547A1

target: T1, huIL-17RA-FLAG-polyHis (human, UniProt Q96F46 33-320); assay: binning; IL-17RA held by bead mAb H
T1 construct: also called IL-17RA-FLAG-pHis; wild-type IL-17RA
readout-type: normalized MFI

For orientation, consider the following solved cases.
[[record]]
binder = "AMH7/AML7 (antibody, IgG2, V domains shown, human mAb from IgG2 XenoMouse mice; also called AM-7; antibody D) VH: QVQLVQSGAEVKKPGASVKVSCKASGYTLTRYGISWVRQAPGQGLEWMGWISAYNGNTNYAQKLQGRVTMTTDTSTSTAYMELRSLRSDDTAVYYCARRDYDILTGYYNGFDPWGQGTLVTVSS VL: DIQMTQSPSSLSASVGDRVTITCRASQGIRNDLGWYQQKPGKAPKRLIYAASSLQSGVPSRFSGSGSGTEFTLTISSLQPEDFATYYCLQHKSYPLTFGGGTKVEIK"
readout_type = "normalized MFI"
reported = 3180

[[record]]
binder = "AMH6/AML6 (antibody, IgG2, V domains shown, human mAb from IgG2 XenoMouse mice; also called AM-6; antibody E) VH: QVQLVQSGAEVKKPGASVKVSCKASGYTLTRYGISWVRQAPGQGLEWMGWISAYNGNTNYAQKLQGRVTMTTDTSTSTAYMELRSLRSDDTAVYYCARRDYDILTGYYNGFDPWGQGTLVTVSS VL: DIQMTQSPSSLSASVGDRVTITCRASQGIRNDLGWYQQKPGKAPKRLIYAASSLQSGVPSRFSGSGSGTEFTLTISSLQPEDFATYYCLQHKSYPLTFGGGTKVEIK"
readout_type = "normalized MFI"
reported = 2540


Let's switch to this binder now.
Give a short answer stating reported normalized MFI for AMH16/AML16 (antibody, IgG2, V domains shown, human mAb from IgG2 XenoMouse mice; also called AM-16; antibody O) VH: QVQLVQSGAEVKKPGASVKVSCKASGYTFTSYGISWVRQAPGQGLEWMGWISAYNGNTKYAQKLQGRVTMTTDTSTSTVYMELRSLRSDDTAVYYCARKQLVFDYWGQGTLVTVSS VL: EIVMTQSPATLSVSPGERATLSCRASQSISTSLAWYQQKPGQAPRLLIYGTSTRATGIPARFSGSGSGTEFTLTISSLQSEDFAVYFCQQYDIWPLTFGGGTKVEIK .
120
